- test_target: soluble human insulin receptor-immunoglobulin heavy chain chimera (human) (UniProt P06213)
- protocol_description: phage ELISA ratios compared
Give measured IR/IGF-1R ratio comparison for each item. Keep answers brief.
Numbers only.

Sample records with IR/IGF-1R ratio comparison:
binder="GCVVEWQKWHGASDPFYHKLSELGGCS [B6Hα-3-F10-IR]" numeric_result=0.2
binder="YRGMLVLGRISGGAGKAASERPARIGQKVSAVNFYDWFV [A6L-0-H3-IR]" numeric_result=0.1

Please give IR/IGF-1R ratio comparison, item by item, for the list that follows.
1. RGMKEEVLVGGSTDPFYHKLSELLQGS [B6Hα-3-F11-IR]
2. MMVVDGFYDALHQLVVAQSLG [20E2A-3-D10-IGFR]

Ans.
0.1
0.3

Please give IR/IGF-1R ratio comparison, item by item, for the list that follows.
1. LRIANLFYQRLWDLAFGGGG [20E2B-3-E8-IGFR]
2. LQPCSGFYECIERLIGVKLSG [20E2Bβ-4-G7-IR]
3. IIGGFYSYFNSVLRLGT [NNRPγ-4-A1-IR]
4. QPDHSYFYSLLQELVGSEERL [20E2B-4-F9-IGFR]

Ans.
1: 0.1; 2: 0.1; 3: 0.2; 4: 0.1
